Target: CRAC ion channels (ICRAC current), RBL-2H3 cells (Rattus norvegicus)
Construct: endogenous in cells; host or cells: RBL-2H3 (rat basophilic leukemia) cells
Sequence (Q5M848 whole entry): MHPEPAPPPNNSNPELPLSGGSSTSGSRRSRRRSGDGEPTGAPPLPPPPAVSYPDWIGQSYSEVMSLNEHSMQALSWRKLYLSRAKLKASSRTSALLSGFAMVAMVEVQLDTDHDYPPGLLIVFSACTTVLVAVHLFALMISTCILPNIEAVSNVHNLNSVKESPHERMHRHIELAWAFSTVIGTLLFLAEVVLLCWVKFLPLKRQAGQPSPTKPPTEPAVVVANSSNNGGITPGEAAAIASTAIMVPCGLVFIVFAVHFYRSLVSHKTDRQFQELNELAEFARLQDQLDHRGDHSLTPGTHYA
Test: Automated patch clamp (Qpatch) inhibition of ICRAC current in RBL-2H3 cells
Assay type: cell-based
Details: 100 nM compound, % ICRAC inhibition
Reported inhibition at 0.1 µM maps to class as: category 1 (below 60%), category 2 (60% to below 70%), category 3 (70% or more)

Which class is correct for the following molecule? "CC1=C(c2ccc(NC(=O)c3cccc(F)c3C)cc2)CN(c2nnn(C)n2)CC1" category 1

Which class is correct for the following molecule? "Cn1nnc(N2CCC(C3CC3)=C(c3ccc(NC(=O)c4c(F)cccc4F)cc3)C2)n1" category 2

Which class is correct for the following molecule? "CC1=C(c2ccc(NC(=O)c3cccc(F)c3F)cc2)CN(c2nnn(C)n2)CC1" category 3

Which class is correct for the following molecule? "CC1=C(c2ccc(NC(=O)c3cc(F)ccc3C)nc2)CN(c2nnn(C)n2)CC1" category 3

Which class is correct for the following molecule? "CCc1c(F)cncc1C(=O)Nc1ccc(C2=C(C)CCN(c3nnn(C)n3)C2)cc1" category 3

Which class is correct for the following molecule? "CC1=C(c2ccc(NC(=O)c3ccncc3C)cc2)CN(c2nnn(C)n2)CC1" category 1

Which class is correct for the following molecule? "Cn1nnc(N2CCC(Cl)=C(c3cnc(NC(=O)c4cc(F)ccc4Cl)cn3)C2)n1" category 3

Which class is correct for the following molecule? "CC1=C(c2ccc(NC(=O)c3ccncc3Cl)cc2)CN(c2nnn(C)n2)CC1" category 1

Which class is correct for the following molecule? "CCn1nnc(N2CCC(C)=C(c3cnc(NC(=O)c4c(F)cccc4Cl)cn3)C2)n1" category 3

Which class is correct for the following molecule? "Cn1nnc(N2CCC(Cl)=C(c3ccc(NC(=O)c4c(F)cccc4F)cc3)C2)n1" category 3

Which class is correct for the following molecule? "CCC1=C(c2ccc(NC(=O)c3cnccc3C)cc2)CN(c2nnn(C)n2)CC1" category 1

Which class is correct for the following molecule? "CC1=C(c2cnc(NC(=O)c3cccc(F)c3C)cn2)CN(c2nnn(C)n2)CC1" category 2

Which class is correct for the following molecule? "CC1=C(c2cnc(NC(=O)c3ccccc3F)cn2)CN(c2nnn(C)n2)CC1" category 3
